Quick reference: normalized growth of the listed items.
Protocol Summary: chemical genetic growth profiling, strain panel (AID 1159580);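 note: tested at 20 µM; growth read once vehicle control cultures reached saturation at 30 °C; 1 = growth at the plate median or of vehicle wells; lower values mean less growth of the strain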
Conditions: S. cerevisiae deletion strains, growth OD, locus YOR069W, strain VPS5, hits give low values
Screen size: about 5,500 compounds; about 2,000 (36%) were called active. Roughly 18% stayed inconclusive and do not appear here. Some of the results follow.
Form: value (number only, do not type unit).

Reference set (5 entries):
> print(dat)
                                   compound  number
1                      C[N+](C)(C)CCOC(N)=O       1
2  COc1cc2c(cc1OC)C1C(=O)c3c(O)cc4c(c3OC1CO2)C=CC(C)(C)O4 (centres undefined)    1.01
3                CCOC(=O)c1c(C)cc(O)c(C)c1O   0.975
4       CN(C)CC/C=C1\c2ccccc2Sc2ccc(Cl)cc21       1
5  CC(C[N+](C)(C)C)OC(N)=O (centres undefined)   0.987

The compound listed as `CC(=O)N[C@@H](CC(C)C)C(=O)O` has a reported normalized growth of 0.982

normalized growth in this record for CCOC(=O)C(Cc1ccc(O)cc1)NC(C)=O (centres undefined) : 1.01

Measured normalized growth, `CC(=O)OCC[N+](C)(C)C` : 1.01

For C=Cc1c2[nH]c(c1C)C=c1[nH]c(c(C)c1C=C)=CC1N=C(C=c3[nH]c(c(C)c3CCC(=O)O)=C2)C(CCC(=O)O)=C1C (centres undefined) the compound record lists normalized growth as 0.95

Recorded result, CC1=C(CC(=O)O)c2cc(F)ccc2/C1=C\c1ccc(S(C)=O)cc1 (centres undefined) , normalized growth: 1.01

The measured normalized growth associated with `CCOC(=O)c1c(C)cc(O)c(C=O)c1O` reads 0.255

Please fill in: normalized growth reported for CC1=C(/C=C/C(C)=C/C=C/C(C)=C/C=C/C=C(C)/C=C/C=C(C)/C=C/C2=C(C)C(=O)C(O)CC2(C)C)C(C)(C)CC(O)C1=O (centres undefined) = 0.985

normalized growth in this record for CC1CC2C3CCC4=CC(=O)C=C[C@]4(C)[C@@]3(F)[C@@H](O)C[C@]2(C)[C@@]1(O)C(=O)CO (some centres undefined) : 0.986

Reported normalized growth for `Cc1cc(O)c(C=O)c(O)c1C(=O)O` was 1.01

---

Protocol Summary: chemical genetic growth profiling, strain panel (AID 1159580)
Conditions: S. cerevisiae deletion strains, growth OD, locus YOR231W, strain MKK1
The campaign covered roughly 5,500 compounds. About 2,000 (36%) were called active. Inconclusive results (about 18%) are left out. Rule as the data show it: active = normalized growth mostly below about 0.91 (no sharp cut-off); inconclusive = no clear call, values can overlap the other calls; inactive = mostly above about 0.92. This is one part of the list.
Pick one: active, inactive

> print(dat)
                                   compound       cat
1              CCOC(=O)c1c(C)cc(O)c(C=O)c1O    active
2  COc1ccc(CN2CSC(=S)N(Cc3ccc(OC)cc3)C2)cc1  inactive
3                  Cc1cc(O)c(C)c(O)c1C(=O)O  inactive
4  CCOC(=O)[C@H](CCc1ccccc1)N[C@H]1CCc2ccccc2N(CC(=O)O)C1=O  inactive
5  CC(=O)CSc1nnc(-c2ccc(C(C)(C)C)cc2)n1-c1ccc(Cl)cc1  inactive

Please share the test call associated with NC(=O)C(c1ccccc1)(c1ccccc1)C1CCN(CCc2ccc3c(c2)CCO3)C1 (stereo unspecified) .
inactive

---

Protocol Summary: chemical genetic growth profiling, strain panel (AID 1159580)
Conditions: S. cerevisiae deletion strains, growth OD, locus YDR101C, strain arx1, hits give low values
Among all 5,500 compounds or so, about 2,000 (36%) were called active. About 18% were inconclusive and are not listed. The list shows a part of the results.
Measured Metric: normalized growth
Answer with the value's number alone.

Compound	normalized growth
O=C(O)C1(O)C[C@@H](O)C(O)[C@H](O)C1 (stereo not given in full)	1.02

The compound `COc1cc2c(cc1OC)Cc1cc(OC)c(OC)cc1Cc1cc(OC)c(OC)cc1C2` showed normalized growth equal to 1.07

The value of normalized growth measured for the compound `C=C(C)[C@@H]1[C@H]2OC(=O)[C@@H]1[C@]1(O)C[C@H]3O[C@]34C(=O)O[C@H]2[C@]14C` turned out to be 1

Documented normalized growth of `CN(C)C(=S)SSC(=S)N(C)C` : 0.0568

// recorded normalized growth for `CC(C)(OC(=O)c1ccccc1)[C@@H]1Cc2cc3ccc(=O)oc3cc2O1` : 0.975

Form: compound = C=C1C2CC[C@H]3[C@]4(C)C[C@H](OC5OC(CO)C(OS(=O)(=O)O)C(OS(=O)(=O)O)C5OC(=O)CC(C)C)C[C@@H](C(=O)O)[C@H]4CC[C@]3(C2)[C@H]1O (stereo not given in full) ; normalized growth = 0.979

For record CO[C@H]1[C@H](O)[C@H](O[C@H]2CC[C@]3(C)C4CC[C@]5(C)C(C6=CC(=O)OC6)CC[C@]5(O)C4CC[C@@H]3C2)O[C@@H](C)[C@@H]1O (stereo not given in full) the listed normalized growth is 0.993

// field: normalized growth; key: `NC(=O)c1ccc[n+]([C@@H]2O[C@H](COP(=O)([O-])OP(=O)(O)OC[C@H]3O[C@@H](n4cnc5c(N)ncnc54)[C@H](O)[C@@H]3O)[C@@H](O)[C@H]2O)c1` ; value = 1.01

Summary for this compound, CC(=O)OCC(=O)[C@H]1CCC2C3CCC4=CC(=O)CC[C@]4(C)C3CC[C@@]21C (stereo not given in full) : normalized growth is 0.954

---

Protocol Summary: chemical genetic growth profiling, strain panel (AID 1159580);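 note: tested at 20 µM; growth read once vehicle control cultures reached saturation at 30 °C; 1 = growth at the plate median or of vehicle wells; lower values mean less growth of the strain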
Conditions: S. cerevisiae deletion strains, growth OD, locus YPR119W, strain clb2, hits give low values
The campaign covered roughly 5,500 compounds. About 2,000 (36%) were called active. Roughly 18% stayed inconclusive and do not appear here. The list shows a part of the results.
Listing: normalized growth of selected compounds
Output: the number by itself.

Below: 8 compounds and their reported normalized growth.
Compound	normalized growth
ClC1=C(Cl)C2(Cl)C3C4C=CC(C4)C3C1(Cl)C2(Cl)Cl (centres undefined)	0.987
C[C@H]1CC2C([C@@H](O)C[C@@]3(C)C2CC[C@]3(O)C(=O)CO)[C@@]2(C)C=CC(=O)C=C12 (some centres undefined)	1.01
C=C(C)C1CNC(C(=O)O)C1CC(=O)O (centres undefined)	1
CC(=O)N[C@@H](CC(C)C)C(=O)O	0.99
C=C(C)[C@@H]1[C@H]2OC(=O)[C@@H]1[C@]1(O)C[C@H]3O[C@]34C(=O)O[C@H]2[C@]14C	0.991
ClC1=C(Cl)C2(Cl)C3C(Cl)C=CC3C1(Cl)C2(Cl)Cl (centres undefined)	0.987
C[C@@H]1[C@H]2[C@H](O[C@@H]3O[C@H](CO)[C@@H](O)[C@H](O)[C@H]3O)OC=C(C(=O)O)[C@H]2C[C@@H]1O	0.999
CC(N)C(=O)OC(C)(C)Cc1ccc(Cl)cc1 (centres undefined)	0.989

Now examine the next entry.
Memo: C=C1C2CC[C@H]3[C@]4(C)C[C@H](OC5OC(CO)C(OS(=O)(=O)O)C(OS(=O)(=O)O)C5OC(=O)CC(C)C)C[C@@H](C(=O)O)[C@H]4CC[C@]3(C2)[C@H]1O (some centres undefined) , reported normalized growth: 0.986

---

Protocol Summary: chemical genetic growth profiling, strain panel (AID 1159580);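 note: tested at 20 µM; growth read once vehicle control cultures reached saturation at 30 °C; 1 = growth at the plate median or of vehicle wells; lower values mean less growth of the strain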
Conditions: S. cerevisiae deletion strains, growth OD, locus YLR384C, strain iki3, hits give low values
Hit rate of the full screen: of about 5,500 compounds, about 2,000 (36%) were called active. Roughly 18% stayed inconclusive and do not appear here. The list shows a part of the results.
# maps each entry to its normalized growth
Respond numerically, and do not add a unit to the figure.

Please review the entries below; each comes with its answer.
Compound	Number
CCC(=O)O[C@H]1[C@H](O[C@@H]2[C@@H](C)[C@H](O[C@H]3C[C@@](C)(OC)[C@@H](O)[C@H](C)O3)[C@@H](C)C(=O)O[C@H](CC)[C@@](C)(O)[C@H](O)[C@@H](C)C(=O)[C@H](C)C[C@@]2(C)O)O[C@H](C)C[C@@H]1N(C)C	1.02
CN1CCc2cc3c(cc2[C@H]1C1OC(=O)c2c1ccc1c2OCO1)OCO3 (stereo partly drawn)	0.976

# input for lookup
So for CC1CC2C3CC(F)C4=CC(=O)C=CC4(C)C3(F)C(O)CC2(C)C1(O)C(=O)CO (stereo not drawn) , the logged normalized growth turned out to be 0.986

---

Protocol Summary: chemical genetic growth profiling, strain panel (AID 1159580);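 note: tested at 20 µM; growth read once vehicle control cultures reached saturation at 30 °C; 1 = growth at the plate median or of vehicle wells; lower values mean less growth of the strain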
Conditions: S. cerevisiae deletion strains, growth OD, locus YLR262C, strain YPT6
About 2,000 (36%) of roughly 5,500 compounds were called active. Roughly 18% stayed inconclusive and do not appear here. Rule as the data show it: active = normalized growth mostly below about 0.91 (no sharp cut-off); inconclusive = no clear call, values can overlap the other calls; inactive = mostly above about 0.92. Some of the results follow.
The reply should name one outcome from active, inactive

Examples from the recorded data:
> print(dat)
                                   molecule       cat
1  COc1ccccc1N1CCN(S(=O)(=O)c2cc(C)c(Cl)cc2C)CC1  inactive
2          CCO/C=C1\SC(=S)N(CCc2ccccc2)C1=O    active
3     Cc1ccc(-c2csc(-c3ccc(Cl)cc3)n2)c(C)c1  inactive
4  O=C1c2cccc3cc([N+](=O)[O-])cc(c23)C(=O)N1CCO  inactive
5         CCOC(=O)c1cc(C)nc(Sc2ccccc2)c1C#N  inactive
6  O=S(=O)(Nc1cccc2cccnc12)c1cc(Cl)c(Cl)cc1Cl    active
7  CCS(=O)CCSP(=O)(OC)OC (stereo not drawn)  inactive
8                    O=C(O)c1cc2ccccc2[nH]1  inactive

How did this test come out for COc1ccc(C2=C(C(C)=O)C(C)=NC(=S)C2C#N)cc1 (stereo not drawn) ?
inactive

Recorded test outcome, item `CC(C)(C)c1ccc(-c2nc(-c3cc(C(C)(C)C)c(O)c(C(C)(C)C)c3)cs2)cc1`
inactive

For `COc1ccc2c(c1)O[C@@H]1COc3cc(OC)c(OC)cc3[C@@H]1C2=O` , which call appears in the assay record?
inactive

Hey, what did the test say about `C[N+](C)(C)CCCCCC[N+](C)(C)C` ?
inactive

Each molecule tested received a call. Report the one for `COc1ccc2c(c1OC)C(=O)O[C@H]2[C@H]1c2cc3c(cc2CCN1C)OCO3` .
inactive

Which result was noted for this molecule in the test: COc1cc2c(cc1OC)C1C(=O)c3ccc4c(c3OC1CO2)CCC(C)(C)O4 (stereo not drawn)
inactive

# lookup: test call for `COc1cc2c(cc1OC)[C@@H]1C(=O)c3ccc(O)c(CC=C(C)C)c3O[C@@H]1CO2`
inactive

Give the logged outcome of this assay for the following molecule: `CCOC(=O)C1CCN(C(=S)Nc2ccccc2C(F)(F)F)CC1`
inactive

Fill in: this test's call for `CC1=C(OS(=O)(=O)c2cc(C)c(Cl)cc2Cl)C(=O)CC1` is ___
inactive

// param item: `COc1cc2c(cc1OC)[C@@H]1C(=O)c3ccc4c(c3O[C@@H]1CO2)C=CC(C)(C)O4` ; yields the recorded call
inactive

Test call for this molecule, please: COc1cc2c(cc1OC)C1C(=O)c3c(cc4c(c3O)C=CC(C)(C)O4)OC1CO2 (stereo not drawn)
inactive

Hi, sorry to bother you, what did the test record for OCCN1C[C@@H](O)[C@@H](O)C(O)C1CO (stereo partly drawn) ?
inactive

Recorded test call requested for `O=C1c2cccc3c([N+](=O)[O-])ccc(c23)C(=O)N1Cc1ccco1`
inactive

For `CCCCCCCCCCCCCCCC[N+](C)(C)C` , what call appears in the results of this test?
active

Please let me know the test result on file for `N#CCOc1ccc(Cl)cc1Cl` .
inactive

Data origin: PubChem BioAssay AID1159580
